assay: antimalarial activity against Dd2 strain (AID 2302);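 note: 0% = DMSO untreated growth and 100% = chloroquine plus artemisinin killed control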; settings: P. falciparum Dd2 in RBCs, LDH growth readout, 72 h; at 2 µM; active compounds read high
Measured property: growth inhibition (%)
Provide the reading as a plain figure in %.

Q: Look up and report measured growth inhibition for this entry: "CCOC(=O)c1cc(Cl)ccc1OCCCON1C(N)=NC(N)=NC1(C)C"
Result: 95

Q: Read the entry CCCC1CCNC(C(O)c2ccnc3ccc(OC)cc23)C1 (centres undefined) and write its reported growth inhibition.
Result: 78

Q: Report growth inhibition, nothing else, for this compound: "CC(C)(O)CC(C)(C)c1cc(Cl)ccc1O"
Result: 1

Q: Kindly indicate its recorded growth inhibition. Item: "CCNc1cc(C(=O)N[C@@H](Cc2ccccc2)[C@H](O)CN[C@@H]2CCc3ccccc32)cc(N2CCCCS2(=O)=O)c1"
Result: 97

Q: Return reported growth inhibition. Input compound: "Cc1cc(NC2CCCC2)nc(Nc2ccccc2C)n1"
Result: 20

Q: Using known records, supply growth inhibition for CC(C)C(=O)NC(c1cccs1)c1cc(Cl)c2cccnc2c1O (centres undefined)
Result: 91

Q: Note down growth inhibition recorded for "Nc1c2ccccc2nc2cc([N+](=O)[O-])ccc12"
Result: 26

Q: Assign growth inhibition to the following record: "NC(=O)c1sc(-n2cnc3ccc(OCC4CCNCC4)cc32)cc1OCc1ccccc1C(F)(F)F"
Result: 62

Q: Name the recorded growth inhibition of the compound listed here: "CC(=O)Oc1c(C2CCN(CCCCNC(=O)c3ccc(NC(=O)c4ccc(Cl)cc4)cc3)CC2)ccc2c1CCCC2"
Result: 80

Q: Give the reported value of growth inhibition for this record: "FC(F)(F)c1ccc2nc(-c3ccc(-c4cccc(CNCCN5CCNCC5)c4)cc3)[nH]c2c1"
Result: 2

Q: Supply growth inhibition value. Item: "CCn1c(Sc2ccc([N+](=O)[O-])c(C#N)c2)nnc1-c1cccc(Cl)c1"
Result: 22

Q: Provide measured growth inhibition value, entry: CN(C1CCC(NC(=O)/C=C/c2ccccc2)CC1)C1CC2(CCN(C(=O)OC(C)(C)C)CC2)c2ccccc21 (centres undefined)
Result: 95

Q: Item "Cc1nc2ccc(NC(=O)Nc3ccnc4ccc(C(F)(F)F)cc34)cc2o1" : provide growth inhibition
Result: 24

Q: Return value of growth inhibition for input O=C(/C=C/c1ccc(Cl)c(Cl)c1)NCCCCCN1CCC(NC(=O)Nc2ccc(C(F)(F)F)cc2)C1 (centres undefined) , no commentary.
Result: 6

Q: Determine from records and report growth inhibition for "CC(C)CCN1CCC(Oc2ccc(NC(=O)c3ccsc3)cc2Cl)CC1"
Result: 81

Q: Supply growth inhibition value. Item: "NC(=NCc1ccc(Cl)c(Cl)c1)NC(=NCCCCCCN=C(NC(N)=NCc1ccc(Cl)c(Cl)c1)N1CCCCC1)N1CCCCC1"
Result: 99

Q: Report growth inhibition for "Fc1ccc2nc(-c3ccc(-c4ccc(CNCc5ccccc5)cc4)cc3)[nH]c2c1"
Result: 94

Q: Give the value of growth inhibition reported for the following: "O=C(COc1ccc(C(=O)c2ccccc2)cc1)Nc1nccs1"
Result: 18

Q: Provide only the value of recorded growth inhibition for "Nc1nc(N)c2c(ccc3c2ccn3Cc2ccc(Cl)cc2)n1"
Result: 99

Q: Provide measured growth inhibition value, entry: "Cn1c(-c2ccccc2)cc2c3c(=O)cc(C(F)(F)F)[nH]c3ccc21"
Result: 49

Q: Please list growth inhibition recorded for the compound "COc1ccc(-c2cc(-c3ccc(S(C)(=O)=O)cc3)cnc2N)cn1"
Result: 99

Q: Return growth inhibition (reported value) for this compound: "c1cc(C2=N[C@H]3CCCC[C@@H]3N2)ccc1OCCCOc1ccc(C2=N[C@@H]3CCCC[C@H]3N2)cc1"
Result: 64

Q: For the compound "COc1c(CCNCCCCNCCc2cc(Cl)c3ccccc3c2OC)cc(Cl)c2ccccc12" , report growth inhibition.
Result: 100

Q: Supply measured growth inhibition of "CCOc1ccc(Cc2c(C)nc3nc(N)nc(N)c3c2C)cc1" in your reply.
Result: 7

Q: Complete the entry with growth inhibition for "CCCSc1nc2c(c(=O)n1Cc1ccco1)C1(CCCCC1)Cc1ccccc1-2"
Result: 95

Q: For "CC1(C)N=C(N)N=C(N)N1OCc1cc2ccccc2cc1CON1C(N)=NC(N)=NC1(C)C" , write its growth inhibition.
Result: 51

Q: State its growth inhibition: "CC(C)COc1ccc(Cl)cc1Cc1nc(-c2nc3ccc(CN4CCCCC4)cc3[nH]2)co1"
Result: 70

Q: // Input: O=C(Nc1ccc(C(=O)Oc2ccc(-c3ccccc3)cc2)cc1)N[C@@H](Cc1ccc(O)cc1)C(=O)NC1CCN(Cc2ccc(O)cc2)C1 (some centres undefined) . Output its growth inhibition only.
Result: 60

Q: Identify measured growth inhibition associated with COc1cc(Nc2nccc(N3CCC(NC(=O)Nc4ccc5c(c4)OCO5)C3)n2)cc(OC)c1OC (centres undefined)
Result: 74

Q: Using known records, supply growth inhibition for "Cc1cc(C)c2[nH]cc(C(=O)O)c(=O)c2c1"
Result: 60

Q: Identify growth inhibition associated with the compound "O=C(Nc1cccc(CN2CCCN(Cc3ccsc3)CC2)c1)c1cc2ccccc2s1"
Result: 29

Q: Check the records and state growth inhibition for "CCCNC[C@@H](O)[C@H](Cc1ccccc1)NC(=O)c1cc2c3c(c1)c(CC)cn3CCS(=O)(=O)N2C"
Result: 98

Q: Provide measured growth inhibition value, entry: "Cc1ccc(CNC(=O)c2cc3c(=O)n4cccc(C)c4nc3n(CCN3CCOCC3)c2=N)cc1"
Result: 21

Q: Note growth inhibition for the compound shown: O=C(NCc1ccccc1)NC1CCN(c2ccnc3cc(Cl)ccc23)C1 (centres undefined)
Result: 99

Q: Read the entry "CCC(CC)CN1C(=O)C(c2ccccc2)(c2ccccc2)N=C1N" and write its reported growth inhibition.
Result: 81

Q: Read off the recorded growth inhibition for "O=C(Nc1cccnc1)c1cc(-c2cc(Cl)ccc2O)n[nH]1"
Result: 85

Q: // Input: "CCCCN(C)CC#Cc1ccc(-c2ccc3[nH]c(C)c(Br)c(=O)c3c2)cn1" . Output its growth inhibition only.
Result: 93

Q: Dear colleague, please send me the reported growth inhibition for "CC(C)CNCc1cccc(-c2ccc(CN(CCCN3CCN(C)CC3)C(=O)CCC3CCCC3)cc2)c1" when you can.
Result: 89

Q: Provide measured growth inhibition value, entry: "NC(=O)COc1c(C2CCN(CCCCNC(=O)c3ccc(-c4ccc(Cl)cc4)c(O)c3)CC2)ccc2c1CCCC2"
Result: 72
